// data source = patent US11723891B2

System: Tumor organoids from colorectal cancer containing a Kras12D oncogenic mutation
MEASUREMENT_DESCRIPTION: Synthetic lethality drug screen with afatinib + selumetinib anchor, apoptosis by semi-automated imaging
Assay type: cell-based, human
EXPERIMENTAL_SETUP: fold concentration reduction of the compound to get 50% killing with anchor afatinib + selumetinib
ENDPOINT_NAME: ΔIC50

The cases that follow already have their ΔIC50 on record.
MOLECULE	ΔIC50
CCC1=C[C@@H]2CN(C1)Cc1c([nH]c3ccccc13)[C@@](C(=O)OC)(c1cc3c(cc1OC)N(C)[C@H]1[C@@](O)(C(=O)OC)[C@H](OC(C)=O)[C@]4(CC)C=CCN5CC[C@]31[C@@H]54)C2 [Vinorelbine]	208 fold
CC[C@]1(O)C[C@H]2CN(CCc3c([nH]c4ccccc34)[C@@](C(=O)OC)(c3cc4c(cc3OC)N(C=O)[C@H]3[C@@](O)(C(=O)OC)[C@H](OC(C)=O)[C@]5(CC)C=CCN6CC[C@]43[C@@H]65)C2)C1 [Vincristine]	>2500 fold
CC(=O)O[C@H]1C(=O)[C@@]2(C)[C@H]([C@H](OC(=O)c3ccccc3)[C@]3(O)C[C@H](OC(=O)[C@H](O)[C@@H](NC(=O)c4ccccc4)c4ccccc4)C(C)=C1C3(C)C)[C@]1(OC(C)=O)CO[C@@H]1C[C@@H]2O [Paclitaxel]	>425 fold
COc1cc(OC)c(/C=C/S(=O)(=O)Cc2ccc(OC)c(NCC(=O)O)c2)c(OC)c1 [Rigosertib]	>1480 fold

// each molecule listed below needs its ΔIC50
1. CC(C)(C)c1[nH]cnc1/C=c1\[nH]c(=O)/c(=C/c2ccccc2)[nH]c1=O [Plinabulin]
2. CC(=O)O[C@@]12CO[C@@H]1C[C@H](O)[C@@]1(C)C(=O)[C@H](O)C3=C(C)[C@@H](OC(=O)[C@H](O)[C@@H](NC(=O)OC(C)(C)C)c4ccccc4)C[C@@](O)([C@@H](OC(=O)c4ccccc4)[C@H]21)C3(C)C [Docetaxel]

>225 fold
>435 fold
